System: MKNK1;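 also: KINOMEscan kinase panel screen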
Test parameters: concentration: 1 μM, replicates: in singlicate; n = 1
Assign %Inh to each entry below.
Response body: numeric value in %, unit text excluded.

Summary line: O=C(Nc1n[nH]c2nc(-c3ccco3)c(Br)cc12)C1CCN(Cc2ccccc2)C1.O=C(O)[C@H](O)[C@@H](O)C(=O)O (centres unmarked) , MKNK1, reported %Inh = 0

Lab note: compound CCCCc1nn2ncccc2c1-c1ccnc(NC2CC2)n1 tested on MKNK1; recorded %Inh was 0

I looked up COC(=O)C(Cc1ccccc1)NC(=O)NC1CCN(c2ccnc(Nc3ccc(F)cc3)n2)C1 (centres unmarked) and its %Inh for MKNK1 was 0

Response field %Inh (MKNK1) for item c1ccc(-c2ccnc3[nH]ccc23)cc1 : 0

Form field %Inh for item COC(=O)C(NC(=O)NC1CCN(c2ccnc(Nc3ccc(F)cc3)n2)C1)c1ccccc1 (centres unmarked) on MKNK1: 24

Where these numbers come from: paper PMC5540273
